Entries and their efflux ratio values follow.
assay: in vitro; settings: human, Caco-2
Description: Efflux ratio of apparent permeability from basolateral to apical side to apical to basolateral side in human Caco2 cells

{"columns": ["Compound Structure String", "efflux ratio"],
 "data": [
  ["COc1ccccc1-n1c(-c2cc(O)ccc2C)cn2c3c(=O)[nH]c(=O)n(C)c3nc12", 7.3],
  ["CCCCn1c(-c2ccccc2C)cn2c3c(=O)[nH]c(=O)n(C)c3nc12", 0.7]
]}

Where do these numbers come from? They come from ChEMBL document CHEMBL2331203.
